pIC50 values for the compounds below.
target: SHP2 (Homo sapiens (Human)); test: SHP2 allosteric inhibition assay (DiFMUP substrate, bisphos-IRS1 peptide activation); conditions: 0.33 nM SHP2, 0.5 μM bisphos-IRS1 peptide, 100 uM DiFMUP, room temperature
Recall that pIC50 is obtained by taking minus log10 of the concentration measured in molar.

Example entries begin here.
{"columns": ["MOLECULE", "pIC50"],
 "data": [
  ["COCOC[C@@H]1C[C@H]2COc3c(Sc4cnc(N5CCC6(CC5)CO[C@@H](C)[C@H]6N)c(CO)n4)ccnc3N2C1", 8.46],
  ["C[C@@H]1OCC2(CCN(c3ncc(Sc4ccnc5c4OC[C@@H]4C[C@H](O[C@H]6CCOC6)CN54)nc3CO)CC2)[C@@H]1N", 7.85],
  ["COC[C@H]1C[C@H]2COc3c(Sc4cnc(N5CCC6(CC5)CO[C@@H](C)[C@H]6N)cn4)ccnc3N2C1", 8.35],
  ["C[C@@H]1OCC2(CCN(c3ncc(Sc4ccnc5c4OC[C@@H]4C[C@H](OC(N)=O)CN54)nc3CO)CC2)[C@@H]1N", 8.22],
  ["C[C@@H]1OCC2(CCN(c3ncc(Sc4ccnc5c4OC[C@@H]4C[C@H](O)CN54)nc3CO)CC2)[C@@H]1N", 8.22]
]}

Please report the recorded pIC50 for `C[C@@H]1OCC2(CCN(c3ncc(Sc4ccnc5c4OC[C@@H]4C[C@H](COCC6COC6)CN54)nc3CO)CC2)[C@@H]1N` .
8.21

Name the reported pIC50 value associated with the compound `COCOC[C@H]1C[C@H]2COc3c(Sc4cnc(N5CCC6(CC5)Cc5ncccc5[C@H]6N)cn4)ccnc3N2C1`
8.41

Bench note: what pIC50 did `COC[C@H]1C[C@H]2COc3c(Sc4ncc(N5CCC6(CC5)CO[C@@H](C)[C@H]6N)nc4N)ccnc3N2C1` show?
8.03

Look up pIC50: `COCOC[C@H]1C[C@H]2COc3c(Sc4cnc(N5CCC6(CC5)CO[C@@H](C)[C@H]6N)cn4)ccnc3N2C1`
8.23

Consider the compound `C[C@@H]1OCC2(CCN(c3ncc(Sc4ccnc5c4OC[C@@H]4C[C@H](CO)CN54)nc3CO)CC2)[C@@H]1N` and give its measured pIC50.
8.30

What does the record list as pIC50 for `COC[C@H]1C[C@H]2COc3c(Sc4cnc(N5CCC6(CC5)CO[C@@H](C)[C@H]6N)c(CO)n4)ccnc3N2C1` ?
8.44

// returns reported pIC50 for input `C[C@@H]1OCC2(CCN(c3ncc(Sc4ccnc5c4OC[C@@H]4C[C@H](S(C)(=O)=O)CN54)nc3CO)CC2)[C@@H]1N`
7.89

I have this compound here, `COCOCOC[C@H]1C[C@H]2COc3c(Sc4cnc(N5CCC6(CC5)CO[C@@H](C)[C@H]6N)c(CO)n4)ccnc3N2C1` , and I need its recorded pIC50.
8.23

====

target: UniProt:Q06124; experiment: SHP2 allosteric inhibition assay (DiFMUP substrate, bisphos-IRS1 peptide activation); settings: 0.33 nM SHP2, 0.5 μM bisphos-IRS1 peptide, 100 uM DiFMUP, room temperature
METRIC_NAME: pIC50
Kindly note that pIC50 refers to -log10 of the concentration in mol/L and answer with the value alone.

{"columns": ["COMPOUND", "EXPERIMENTAL_VALUE"],
 "data": [
  ["COCOC[C@H]1C[C@@H]2COc3c(Sc4cnc(N5CCC6(CC5)CO[C@@H](C)[C@H]6N)c(CO)n4)ccnc3N2C1", 8.31],
  ["C[C@@H]1OCC2(CCN(c3ncc(Sc4ccnc5c4OC[C@@H]4C[C@@H](O)CN54)nc3CO)CC2)[C@@H]1N", 8.10],
  ["C[C@@H]1OCC2(CCN(c3ncc(Sc4ccnc5c4OCC4CS(=O)(=O)CCN54)nc3CO)CC2)[C@@H]1N (stereo partly shown)", 7.89],
  ["C[C@@H]1OCC2(CCN(c3ncc(Sc4ccnc5c4OC[C@@H]4C[C@H](C#N)CN54)nc3CO)CC2)[C@@H]1N", 7.96],
  ["COCOC[C@H]1C[C@H]2COc3c(Sc4cnc(N5CCC6(CC5)Cc5ncccc5[C@H]6N)c(CO)n4)ccnc3N2C1", 8.48],
  ["C[C@@H]1OCC2(CCN(c3ncc(Sc4ccnc5c4OC[C@@H]4C[C@@H](F)CN54)nc3CO)CC2)[C@@H]1N", 8.30]
]}

Look at this compound and give its reported pIC50. `C[C@@H]1OCC2(CCN(c3ncc(Sc4ccnc5c4OC[C@@H]4C[C@H](O[C@@H]6CCOC6)CN54)nc3CO)CC2)[C@@H]1N`
7.92

====

molecular target: SHP2 (Homo sapiens (Human)); experiment: SHP2 allosteric inhibition assay (DiFMUP substrate, bisphos-IRS1 peptide activation); settings: 0.33 nM SHP2, 0.5 μM bisphos-IRS1 peptide, 100 uM DiFMUP, room temperature
METRIC_NAME: IC50 (nM)
Supply the numeric figure in nM, leaving out any unit text.

These recorded examples may help you get a feel for the data.
{"columns": ["MOLECULE", "MEASURED_ON", "SCALE_UNIT", "IC50"],
 "data": [
  ["CO[C@H]1C[C@H]2COc3c(Sc4cnc(N5CCC6(CC5)CO[C@@H](C)[C@H]6N)c(CO)n4)ccnc3N2C1", "SHP2 (Homo sapiens (Human))", "nM", 8],
  ["C[C@@H]1OCC2(CCN(c3ncc(Sc4ccnc5c4OC[C@@H]4C[C@H](n6cccn6)CN54)nc3CO)CC2)[C@@H]1N", "SHP2 (Homo sapiens (Human))", "nM", 10],
  ["COCOC[C@H]1C[C@H]2COc3c(Sc4cnc(N5CCC6(CC5)CO[C@@H](C)[C@H]6N)c(CO)n4)ccnc3N2C1", "SHP2 (Homo sapiens (Human))", "nM", 4.2],
  ["COCOC[C@@H]1C[C@@H]2COc3c(Sc4cnc(N5CCC6(CC5)CO[C@@H](C)[C@H]6N)c(CO)n4)ccnc3N2C1", "SHP2 (Homo sapiens (Human))", "nM", 3.7]
]}

Would you kindly look at the next entry?
Under SHP2 (Homo sapiens (Human)): IC50 value of `COCOC[C@H]1C[C@H]2COc3c(Sc4nc(CO)c(N5CCC6(CC5)CO[C@@H](C)[C@H]6N)nc4C)ccnc3N2C1` ?
12

====

Molecular target: SHP2 (Homo sapiens (Human), UniProt Q06124)
Sequence (Q06124 whole entry): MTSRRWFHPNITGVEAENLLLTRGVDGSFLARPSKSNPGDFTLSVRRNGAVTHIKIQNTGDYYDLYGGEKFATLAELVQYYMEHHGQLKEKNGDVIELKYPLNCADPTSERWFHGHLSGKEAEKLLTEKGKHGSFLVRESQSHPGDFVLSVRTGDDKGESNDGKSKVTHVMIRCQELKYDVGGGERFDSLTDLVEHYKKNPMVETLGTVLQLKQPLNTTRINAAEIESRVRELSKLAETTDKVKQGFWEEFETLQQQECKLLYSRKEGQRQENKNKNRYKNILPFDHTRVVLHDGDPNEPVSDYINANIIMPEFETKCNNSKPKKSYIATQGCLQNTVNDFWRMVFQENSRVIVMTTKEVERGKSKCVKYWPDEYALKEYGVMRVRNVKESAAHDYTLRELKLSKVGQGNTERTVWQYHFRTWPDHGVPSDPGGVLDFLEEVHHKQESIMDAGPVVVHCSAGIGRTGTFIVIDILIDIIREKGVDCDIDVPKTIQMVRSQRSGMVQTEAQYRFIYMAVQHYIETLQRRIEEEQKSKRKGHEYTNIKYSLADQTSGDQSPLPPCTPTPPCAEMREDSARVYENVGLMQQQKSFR
Assay: SHP2 allosteric inhibition assay (DiFMUP substrate, bisphos-IRS1 peptide activation)
Conditions: 0.33 nM SHP2, 0.5 μM bisphos-IRS1 peptide, 100 uM DiFMUP, room temperature
Excerpt: At the basal state, SHP2 is auto-inhibited and access of substrates to the catalytic site is blocked by the […] interactions between the SH2 domains and the PTP domain. When bis-tyrosyl-phosphorylated peptides bind to SH2 domain of SHP2, the PTP domain becomes available for substrate recognition and reaction catalysis and SHP2 is allosterically activated. SHP2 catalytic activity can be measured using a fluorogenic artificial substrate DiFMUP. […]
METRIC_NAME: IC50 (nM)
Form entry: value (nM) — number only.

Some solved entries appear below for comparison.
{"columns": ["MOLECULE", "METRIC_NAME", "EXPERIMENTAL_VALUE"],
 "data": [
  ["C[C@@H]1OCC2(CCN(c3ncc(Sc4cc(N)nc5c4OC[C@@H]4CCCN54)nc3CO)CC2)[C@@H]1N", "IC50", 18],
  ["C[C@@H]1OCC2(CCN(c3ncc(Sc4ccnc5c4OC[C@@H]4C[C@H](COCC6CC6)CN54)nc3CO)CC2)[C@@H]1N", "IC50", 2.3],
  ["COCOC[C@H]1C[C@H]2COc3c(Sc4cnc(N5CCC6(CC5)COC5(CCC5)[C@H]6N)c(CO)n4)ccnc3N2C1", "IC50", 7],
  ["CO[C@@H]1C[C@@H]2COc3c(Sc4cnc(N5CCC6(CC5)CO[C@@H](C)[C@H]6N)c(CO)n4)ccnc3N2C1", "IC50", 8],
  ["C[C@@H]1OCC2(CCN(c3ncc(Sc4ccnc5c4OC[C@H]4CCCN54)nc3CO)CC2)[C@@H]1N", "IC50", 4]
]}

So what does the record say about IC50 for `COCCOC[C@H]1C[C@H]2COc3c(Sc4cnc(N5CCC6(CC5)CO[C@@H](C)[C@H]6N)c(CO)n4)ccnc3N2C1` ?
4

# IC50 lookup, item `COCOC[C@H]1C[C@H]2COc3c(Sc4ncc(N5CCC6(CC5)CO[C@@H](C)[C@H]6N)nc4N)ccnc3N2C1`
5.9

Please look up its IC50: `COCO[C@H]1C[C@H]2COc3c(Sc4cnc(N5CCC6(CC5)CO[C@@H](C)[C@H]6N)c(CO)n4)ccnc3N2C1`
5

Give its IC50 value. Item: `COC[C@@H]1C[C@H]2COc3c(Sc4cnc(N5CCC6(CC5)CO[C@@H](C)[C@H]6N)c(CO)n4)ccnc3N2C1`
3.8

Which IC50 is reported for this compound? `CO[C@H]1C[C@@H]2COc3c(Sc4cnc(N5CCC6(CC5)CO[C@@H](C)[C@H]6N)c(CO)n4)ccnc3N2C1`
10

IC50 lookup needed for `COCCO[C@H]1C[C@H]2COc3c(Sc4cnc(N5CCC6(CC5)CO[C@@H](C)[C@H]6N)c(CO)n4)ccnc3N2C1` , thanks.
10

Origin of measurements: patent US10894797B2
